Every entry's value here was drawn from patent US20250355001A1.

- ASSAYED SYSTEM: T1, hT40 (T441, SEQ ID NO: 1) (Homo sapiens, UniProt P10636)
- T1 construct: Full length tau (hT40)
- T1 sequence (P10636 1-441 isoform P10636-8): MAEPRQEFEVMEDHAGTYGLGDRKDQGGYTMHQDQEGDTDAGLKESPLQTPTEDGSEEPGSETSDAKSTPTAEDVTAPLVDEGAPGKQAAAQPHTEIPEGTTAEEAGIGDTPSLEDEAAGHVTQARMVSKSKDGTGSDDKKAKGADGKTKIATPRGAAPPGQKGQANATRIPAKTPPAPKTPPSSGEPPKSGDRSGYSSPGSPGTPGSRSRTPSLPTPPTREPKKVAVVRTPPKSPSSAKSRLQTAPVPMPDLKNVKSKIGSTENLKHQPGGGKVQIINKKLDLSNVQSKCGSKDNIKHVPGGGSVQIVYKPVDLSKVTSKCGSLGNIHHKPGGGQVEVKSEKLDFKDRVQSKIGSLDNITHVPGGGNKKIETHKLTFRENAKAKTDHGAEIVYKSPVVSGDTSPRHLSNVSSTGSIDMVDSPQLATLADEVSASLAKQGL
- ASSAY METHOD TEXT: Biacore X100 SPR kinetics of scAbs for hT40
- Format: binding
- CONDITION DETAILS: Table 25; '3a' and '3b' scAbs, hT40
ENDPOINT LABEL: ka (M⁻¹ s⁻¹)
Return type: number; implicit unit M⁻¹ s⁻¹.

Give the reported ka for this molecule. 3aG3: N-terminal anti-tau clone, Table 6; SEQ ID NO: 424 (protein, 3aG3 amino acid sequence) QVQLQESGPSLVKPSQTLSLTCTVSGFSLSSNGVGWVRQAPGKVPEWVGDISSSGKAYANPALKSRLSITRDTAKTQVFLSLSSVTTEDTAVYYCVRCRDGGVSYGYDIDYWGPGLLVTVSSEGKSSGASGESKVDDQAVLTQPPSVSGSPGQRVSITCSGSSSNIGGGNYLSWFQQVPGSAPKLLIYGATSRASGVPDRFSGSRSGNTATLTISSLQAEDEADYYCASFDTSSGGIFGAGTRLTVLG
62940

Provide one value: measured ka of 3aH6: N-terminal anti-tau clone, Table 6; SEQ ID NO: 423 (protein, 3aH6 amino acid sequence) QVQLQESGPSLVKPSQTLSLTCTVSGFSLSSNGVGWVRQAPGKVPEWLGDISSVGKKYANPALKSRLSFTRDTSKSQVSLSLSSVTTEDTAVYYCVKCRDGGVTYGYDIDYWGPGLLVTASSEGKSSGASGESKVDDQAVVTQPSSVSGSLGQSVSITCSGSSGNVGYGDYVSWFQQFHGSAPKLLIYGATNLASGVPARFSGSRSGNTATLTISSLHAEDEADYYCASYDSSSGGVFGSGTRLTVLG
2.757e+06

// Input: 3aB7: anti-tau clone, Table 7; SEQ ID NO: 420 (protein, 3aB7 amino acid sequence) QVQLQESGPSLVKPSQTLSLTCTVSGFSLTSNGVGWVRQAPGKVPEWVGDKSSAGKTYGNPALKSRLSITRDTSKSQVSLSLSSVTTEDTAVYYCVRCRDGGVTYGYDVDYWGPGLLVTVSSEGKSSGASGESKVDDQAVLTQPSSVSKSLGQSVSITCSGSSSNVGYGDVVSWFQQFPGSAPKLLIFGTTTRASGVPDRFSGSRSGNAATLTINSLQAEDEADYYCASFDSDSGGIAGSGTRLTVLG . Output its ka only.
207200

Kindly indicate its recorded ka. Item: 3bF4: anti-tau clone, Table 7; SEQ ID NO: 421 (protein, 3bF4 amino acid sequence) QVQLQESGPSLVKPSQTLSLTCTVSGFSLSSNGVGWVRQAPGKVPEWLGDISSVGKKYANPALKSRLSFTRDTSKSQVSLSLSSVTTEDTAVYYCVKCRDGGVTYGYDIDYWGPGLLVTVSSEGKSSGASGESKVDDQAVLTQPSSVSKSTGQTVSITCSGSSSNVGLRNYVTWFQQVPGSAPKLLIYGATSRASGIPDRFSGSRSGNTATLIISSLQAEDEADYYCASADTNDGGVFGSGTRLTVLG
109300

Item 3aD3: N-terminal anti-tau clone, Table 6; SEQ ID NO: 422 (protein, 3aD3 amino acid sequence) QVQLQESGPSLVKPSQTLSLTCTVSGFSLTSNGVGWVRRAPGKVPEWVGDISSGGKVYGHPALKSRLSITRDTSKSQVSLSVSSVTSEDTAVYYCVRCRDGGVSYGYDSDYWGPGLLVTVSSEGKSSGASGESKVDDQAVVTQPSSVSKSLGQSVSITCSGSSSNVGYGDYVGWFQQVPGSAPKLLIYGVTERASGVPDRFSGSRSGNTATLTISSIQAEDEADYYCASYDDSSGGIFGSGTRLTVLG : provide ka
544400
